# Read-out: adenosine kinase (ADK) gene, ADK (gene 132)
# assay_details: LTEA_HepaRG_ADK: Life Technologies and Expression Analysis (LTEA) Assay for adenosine kinase (ADK) gene using HepaRG (AID 2283471)
# condition_label: mRNA level, 48 h; actives raise or lower the signal
Active and inactive are the calls of the source. Rule for the calls: active = hit-call score of the fitted dose curve at least 0.9, where 1 is the maximum; inactive = score below 0.9.
Labels: true (1) for active, false (0) for inactive

INSERT INTO assay_data (item_smiles, group_label) VALUES
  ('O=C(O)c1ccccc1C(=O)OCc1ccccc1', 'false (0)'),
  ('CCCCCCCCN(C)CCCCCCCC', 'false (0)'),
  ('NCc1cccc(C2CCN(C(=O)c3ccc(C#Cc4ccccc4F)o3)CC2)c1', 'false (0)'),
  ('CCCCCCCCCC(=O)O', 'false (0)'),
  ('CN1C(=O)CC[C@H]1c1cccnc1', 'false (0)'),
  ('CC(=O)N1CCN(c2ccc(OC[C@H]3CO[C@](Cn4ccnc4)(c4ccc(Cl)cc4Cl)O3)cc2)CC1', 'true (1)'),
  ('CCCCCCCCOc1ccc(C(=O)c2ccccc2)c(O)c1', 'false (0)'),
  ('c1ccc(C[n+]2cccc3ccccc32)cc1', 'false (0)'),
  ('Cc1ccc2oc(CN(Cc3ccccc3)C(=O)Nc3c(F)cc(F)cc3F)c(-c3ccc(Cl)cc3)c2c1', 'false (0)'),
  ('COc1cccc([C@H](O)C2CCN(CCc3ccc(F)cc3)CC2)c1OC', 'false (0)'),
  ('Clc1ccccc1C(c1ccccc1)(c1ccccc1)n1ccnc1', 'true (1)'),
  ('CCCCCCCCCCCC[N+](C)(C)C', 'false (0)'),
  ('Cc1cn([C@H]2C[C@H](N=[N+]=[N-])[C@@H](CO)O2)c(=O)[nH]c1=O', 'false (0)'),
  ('Cc1c2ccccc2c(C)c2c1ccc1ccccc12', 'false (0)'),
  ('O=c1[nH]sc2ccccc12', 'false (0)'),
  ('O=C(OCCCCCCOC(=O)c1ccccc1)c1ccccc1', 'false (0)');

* * *

# system_tested: Androgen Receptor/SRC-1 Co-activator, AR (gene 367) (UniProt P10275)
# Sequence (P10275 whole entry, looked up): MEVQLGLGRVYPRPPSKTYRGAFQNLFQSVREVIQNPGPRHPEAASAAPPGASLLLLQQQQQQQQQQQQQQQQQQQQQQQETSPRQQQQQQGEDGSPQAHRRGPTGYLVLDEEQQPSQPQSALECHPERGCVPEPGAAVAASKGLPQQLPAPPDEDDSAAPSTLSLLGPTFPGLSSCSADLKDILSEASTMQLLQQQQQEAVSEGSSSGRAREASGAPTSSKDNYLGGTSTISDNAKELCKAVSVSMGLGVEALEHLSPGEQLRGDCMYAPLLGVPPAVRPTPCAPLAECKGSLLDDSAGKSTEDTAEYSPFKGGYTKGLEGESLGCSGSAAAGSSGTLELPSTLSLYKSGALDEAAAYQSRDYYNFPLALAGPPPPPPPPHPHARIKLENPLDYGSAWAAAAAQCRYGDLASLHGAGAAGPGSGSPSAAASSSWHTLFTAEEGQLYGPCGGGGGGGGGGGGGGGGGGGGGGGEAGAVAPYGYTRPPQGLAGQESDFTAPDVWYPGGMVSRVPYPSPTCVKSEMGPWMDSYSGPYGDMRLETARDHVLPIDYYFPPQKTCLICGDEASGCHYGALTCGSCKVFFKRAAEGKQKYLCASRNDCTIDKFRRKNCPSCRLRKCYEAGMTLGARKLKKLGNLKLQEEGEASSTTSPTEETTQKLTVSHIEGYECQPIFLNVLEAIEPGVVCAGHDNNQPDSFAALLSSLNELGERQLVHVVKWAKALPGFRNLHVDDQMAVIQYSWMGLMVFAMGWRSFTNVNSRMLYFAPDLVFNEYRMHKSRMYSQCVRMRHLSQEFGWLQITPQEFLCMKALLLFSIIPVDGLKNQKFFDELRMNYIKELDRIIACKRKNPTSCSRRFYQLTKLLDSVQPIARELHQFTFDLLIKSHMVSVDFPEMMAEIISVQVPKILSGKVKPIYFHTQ
# assay_details: OT_AR_ARSRC1_0480: Odyssey Thera (OT) 8-hour HEK293T Protein-Complementation Assay for Androgen Receptor/SRC-1 Co-activator (AID 2283354);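 note: hits raise the complementation signal above DMSO so AC50 marks enhancers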
# Procedure: OT_AR_ARSRC1_0480 is a cell-based, single-readout assay that uses HEK293T, a human kidney cell line, with measurements taken at 8 hours after chemical dosing in a 384-well plate.OT_AR_ARSRC1_0480 is one of one assay component(s) measured or calculated from the OT_AR_ARSRC1_0480 assay. […] This assay endpoint, OT_AR_ARSRC1_0480, was analyzed in the positive analysis fitting direction relative to DMSO as the negative control and baseline of activity. […]
Inconclusive results are not listed. Active and inactive are the calls of the source. How the source made its calls: active means hit-call score of the fitted dose curve at least 0.9, where 1 is the maximum; inconclusive means response in the unintended direction; inactive means score below 0.9.
Classes used: active, inactive

INSERT INTO assay_data (compound, group_label) VALUES
  ('COc1cc(C(=O)NC2CCN(C)CC2)ccc1Nc1ncc2c(n1)N(C1CCCC1)CC(F)(F)C(=O)N2C', 'active'),
  ('Cc1c2ccccc2c(C)c2c1ccc1ccccc12', 'active'),
  ('CCCCCCCCCC(=O)O', 'inactive'),
  ('CCCC(=O)OCCC(C)C', 'inactive'),
  ('COCC(C)OCC(C)OCC(C)O (stereo not given)', 'inactive'),
  ('CN(C)C(=O)C1(N2CCCCC2)CCN(CC[C@@]2(c3ccc(Cl)c(Cl)c3)CN(C(=O)c3ccccc3)CCO2)CC1', 'active'),
  ('O=c1c(-c2ccc(O)cc2)coc2cc(O)cc(O)c12', 'inactive'),
  ('NCc1cccc(C2CCN(C(=O)c3ccc(C#Cc4ccccc4F)o3)CC2)c1', 'active'),
  ('Oc1ccc2ccccc2c1', 'inactive'),
  ('Cc1occc1C(=O)Nc1ccc(C(=O)N2CCC(F)(F)/C(=C\C(=O)N3CCC(N4CCCCC4)CC3)c3ccccc32)cc1', 'inactive');

* * *

# assay_details: STM_H9_OrnCyssISnorm_ratio: Stemina devTOX quickPredict H9 human embryonic stem cell (hESC)-based Assay for Ornithine (ORN):Cystine (CYSS) Ratio (AID 2283714)
Inconclusive results are not listed. Calls of active or inactive are those of the source. The calls were made as follows: active = hit-call score of the fitted dose curve at least 0.9, where 1 is the maximum; inconclusive = response in the unintended direction; inactive = score below 0.9.
Classes used: y for active, n for inactive

INSERT INTO results (molecule, group_label) VALUES
  ('O=C=NCCCCCCN=C=O', 'n'),
  ('CCCCCCCCOC(=O)c1cc(O)c(O)c(O)c1', 'y'),
  ('CN(C)c1ccc(C(=C2C=CC(=[N+](C)C)C=C2)c2ccc(N(C)C)cc2)cc1', 'y'),
  ('CN1C(=O)N(c2ccccc2Br)Cc2cnc(Nc3ccc4c(c3)OCC(CO)O4)nc21 (stereo unspecified)', 'y'),
  ('CN1C(=O)CC[C@H]1c1cccnc1', 'n'),
  ('O=c1c(-c2ccc(O)cc2)coc2cc(O)cc(O)c12', 'y');

* * *

# Read-out: Thrombomodulin, THBD (gene 7056)
# assay_details: BSK_3C_Thrombomodulin: BioMAP Diversity Plus: 3C Assay for Thrombomodulin Biomarker Activity (AID 2283029)
# condition_label: primary human endothelial cells (HUVEC); actives raise or lower the signal
The source made the active and inactive calls. The calls were made as follows: active = hit-call score of the fitted dose curve at least 0.9, where 1 is the maximum; inactive = score below 0.9.
Labels: 1 = active, -1 = inactive

INSERT INTO results (compound, group_label) VALUES
  ('O=C1c2ccccc2C(=O)N1CCc1noc(-c2ccc(CN3CCCCCC3)s2)n1', -1),
  ('CC(C)(C)c1cc(/C=C2\SC(N)=NC2=O)cc(C(C)(C)C)c1O', -1),
  ('OC12N=C(c3ccccc3)SC1Cc1cc(Cl)ccc12 (configuration not stated)', -1),
  ('Cc1cc2c(cc1C(F)(F)F)N(C(=O)Nc1ccc(Oc3cccnc3C)nc1)CC2', 1),
  ('CCCCCCCCN(C)CCCCCCCC', -1),
  ('O=c1[nH]sc2ccccc12', 1),
  ('Cc1ncc(CO)c(CO)c1O', -1),
  ('O=c1c(-c2ccc(O)cc2)coc2cc(O)cc(O)c12', -1),
  ('O=C(O)Cn1c(=O)n(Cc2ccc(Br)cc2F)c(=O)c2ccc(Cl)cc21', -1),
  ('O=C1O[C@H]([C@@H](O)CO)C(O)=C1O', -1),
  ('CCCCCCCCOC(=O)c1cc(O)c(O)c(O)c1', -1),
  ('O=C(Nc1ccc(Cl)cc1)Nc1ccc(Cl)c(Cl)c1', -1);

* * *

# Read-out: Macrophage colony-stimulating factor (MCSF), CSF1 (gene 1435)
# assay_details: BSK_hDFCGF_MCSF: BioMAP Diversity Plus: hDFCGF Assay for Macrophage colony-stimulating factor (MCSF) Biomarker Activity (AID 2283060)
# condition_label: primary human foreskin fibroblasts; actives raise or lower the signal
Calls of active or inactive are those of the source. The calls were made as follows: active = hit-call score of the fitted dose curve at least 0.9, where 1 is the maximum; inactive = score below 0.9.
Classes used: active, inactive

INSERT INTO assay_data (compound, group_label) VALUES
  ('CC[C@H](NC(=O)c1cc(F)ccc1NS(=O)(=O)c1cccc2cccnc12)c1ccccc1', 'inactive'),
  ('C[C@]12CC[C@@H]3c4ccc(O)cc4CC[C@H]3[C@@H]1CCC2=O', 'inactive'),
  ('CCCC(=O)OCCC(C)C', 'inactive'),
  ('Oc1ccc2ccccc2c1', 'inactive'),
  ('CCCCCCCCCCCCO', 'active'),
  ('O=C(Nc1ccc(Cl)cc1)Nc1ccc(Cl)c(Cl)c1', 'active'),
  ('O=C1CCC(C2CCCCC2)CC1', 'active'),
  ('CN1C(=O)N(c2ccccc2Br)Cc2cnc(Nc3ccc4c(c3)OCC(CO)O4)nc21 (stereo unspecified)', 'active'),
  ('O=C1O[C@H]([C@@H](O)CO)C(O)=C1O', 'inactive'),
  ('O=CCCCC=O', 'active'),
  ('Cc1cn([C@H]2C[C@H](N=[N+]=[N-])[C@@H](CO)O2)c(=O)[nH]c1=O', 'inactive');

* * *

# Read-out: TIMP1, TIMP1 (gene 7076)
# assay_details: LTEA_HepaRG_TIMP1: Life Technologies and Expression Analysis (LTEA) Assay for TIMP1 using HepaRG (AID 2283534)
# condition_label: mRNA level, 48 h; actives raise or lower the signal
The source made the active and inactive calls. How the source made its calls: active means hit-call score of the fitted dose curve at least 0.9, where 1 is the maximum; inactive means score below 0.9.
Labels: true (active), false (inactive)

INSERT INTO assay_data (item_smiles, group_label) VALUES
  ('C[C@]12CC[C@@H]3c4ccc(O)cc4CC[C@H]3[C@@H]1CC[C@H]2O', 'false'),
  ('CC/C(=C(/CC)c1ccc(O)cc1)c1ccc(O)cc1', 'false'),
  ('CCCCCCCCOC(=O)c1cc(O)c(O)c(O)c1', 'false'),
  ('c1ccc(C[n+]2cccc3ccccc32)cc1', 'false'),
  ('Clc1ccccc1C(c1ccccc1)(c1ccccc1)n1ccnc1', 'false'),
  ('CCCCCCCCCC(=O)O', 'false'),
  ('Cc1c2ccccc2c(C)c2c1ccc1ccccc12', 'false'),
  ('Cc1ccc(C(C)C)cc1', 'false'),
  ('CCOC(=O)O[C@H](C)OC(=O)c1ccc2c(c1)cc(C(=O)NC1CCN(C(C)C)CC1)n2Cc1cc(-c2ccc(Cl)s2)on1', 'false'),
  ('O=CCCCC=O', 'false'),
  ('O=C(O)c1ccccc1-n1cc(C(=O)O)c(=O)c2cc(Nc3c(F)cc(F)cc3Cl)c(Cl)cc21', 'false'),
  ('CCN(Cc1cccc(S(=O)(=O)O)c1)c1ccc(C(=C2C=CC(=[N+](CC)Cc3cccc(S(=O)(=O)O)c3)C=C2)c2ccccc2S(=O)(=O)[O-])cc1', 'false'),
  ('CC(C)(c1cc(Br)c(O)c(Br)c1)c1cc(Br)c(O)c(Br)c1', 'false'),
  ('Oc1ccccc1', 'false'),
  ('O=C(O)Cn1c(=O)n(Cc2ccc(Br)cc2F)c(=O)c2ccc(Cl)cc21', 'false'),
  ('CN1C(=O)CC[C@H]1c1cccnc1', 'false'),
  ('Cc1cc2c(cc1C(F)(F)F)N(C(=O)Nc1ccc(Oc3cccnc3C)nc1)CC2', 'true'),
  ('CCN(CC)C(=O)c1cc(S(=O)(=O)Cc2ccccc2)c(N2CCC(c3ccccc3)CC2)cc1N(CC)CCN(C)C', 'false'),
  ('CCCOC(=O)c1cc(O)c(O)c(O)c1', 'false');

Hello, the source for this data is PubChem BioAssay (EPA / NIEHS), in case you need it.
